- Test system: LOX IMVI melanoma
- protocol text: NCI tumour cell line growth inhibition, 48 h; in the data active = GI50 below about 0.43 µM; inactive = the rest
Outcomes: active, inactive

molecule: Oc1ccc(O)c2c1C1(Cl)C(Cl)=C(Cl)C2(Cl)C1(Cl)Cl
assigned category: inactive

molecule: O=C1NC(SCc2ccc(F)cc2)=N/C1=C/c1cccc(OCc2ccc(Cl)cc2)c1
assigned category: inactive

molecule: O=C1C=C(OCCCl)C(=O)c2c(O)ccc(O)c21
assigned category: inactive

molecule: Cc1ccc(S(=O)(=O)Nc2cc(Sc3ccccc3)c(O)c3ccccc23)cc1
assigned category: inactive

molecule: Nc1cc(-c2ccccc2)n(C(=O)Nc2ccc(Oc3ccccc3)cc2)n1
assigned category: inactive

molecule: COc1cc2c(cc1OCCCCCn1c3ccccc3c3ccccc31)N=C[C@@H]1CCCN1C2=O
assigned category: inactive

molecule: COc1cc(NC(=O)c2cc(O)c(C/C=C(\C)CCC=C(C)C)c(O)c2)cc2c1O[C@]1(C)CC[C@@H](O)C(C)(C)[C@H]1C2
assigned category: inactive

molecule: O=c1[nH]nc(-c2ccccc2)c2c(-c3ccccc3)onc12
assigned category: inactive

molecule: O=C(CN1C(=O)S/C(=C\C(Cl)=C\c2ccccc2)C1=O)NCCCn1ccnc1
assigned category: inactive

molecule: Cc1cn(Cc2ccccc2CCl)c(=O)n(Cc2ccccc2CCl)c1=O
assigned category: inactive

molecule: CCc1nc(N)nc(N)c1C#CC(C)c1cc(-c2ccnc(C)c2)c2oc(C)nc2c1 (stereo unspecified)
assigned category: active
